Attribution: patent US20260132182A1

Hi there, I'd appreciate the recorded Human AmyR3 potency [EC50 (pM)] for every entry that follows.
Target: T1, human amylin-3 (a) receptor (human, UniProt P30988 25-474; O60896 24-148)
T1 sequence (looked up) 1: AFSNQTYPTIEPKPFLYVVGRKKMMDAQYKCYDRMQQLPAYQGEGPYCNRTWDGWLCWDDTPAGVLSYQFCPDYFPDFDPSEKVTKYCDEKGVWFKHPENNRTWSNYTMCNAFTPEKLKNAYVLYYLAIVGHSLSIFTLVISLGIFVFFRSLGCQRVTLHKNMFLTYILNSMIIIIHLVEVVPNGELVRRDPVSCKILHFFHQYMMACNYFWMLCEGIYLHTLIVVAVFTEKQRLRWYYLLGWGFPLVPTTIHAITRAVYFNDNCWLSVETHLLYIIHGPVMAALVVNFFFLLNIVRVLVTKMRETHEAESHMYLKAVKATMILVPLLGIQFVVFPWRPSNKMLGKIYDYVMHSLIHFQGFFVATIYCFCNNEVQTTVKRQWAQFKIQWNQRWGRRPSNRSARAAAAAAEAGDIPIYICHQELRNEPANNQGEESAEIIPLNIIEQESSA
T1 sequence (looked up) 2: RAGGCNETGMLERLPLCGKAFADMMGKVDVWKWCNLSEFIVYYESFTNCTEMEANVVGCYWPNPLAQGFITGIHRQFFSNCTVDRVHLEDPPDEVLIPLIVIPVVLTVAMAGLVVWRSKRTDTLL
Experiment: cell-based or functional assay
Starred links: 1 amine or outer side, 2 acyl side, 3 side chain; linkers in the order of their positions; H or OH if unused. Non-standard residues stand in square brackets, D forms with d. Groups on a side chain read outwards from the residue. *: point of attachment. Decanoyl(10-(4-HOOC-PhO)) = O=C(O)c1ccc(OCCCCCCCCCC(=O)*)cc1; C18 diacid = O=C(O)CCCCCCCCCCCCCCCCC(=O)*; γGlu = O=C(O)[C@H](CCC(=O)[*:2])N[*:1]; AEEA = NCCOCCOCC(=O)O; Aib = CC(C)(N)C(=O)O
Answers are plain numbers, in pM.

[[record]]
binder = "Compound 0114 (peptide) peptide: H[Aib]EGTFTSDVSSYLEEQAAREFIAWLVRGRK([AEEA-AEEA-γGlu-C18 diacid])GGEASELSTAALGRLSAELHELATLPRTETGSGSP-NH2"
readout_kind = "Human AmyR3 potency [EC50 (pM)]"
test_value = 17.5

[[record]]
binder = "Compound 0100 (peptide) peptide: HWEGTFTSDVSSYLEEQAARK([AEEA-AEEA-γGlu-Decanoyl(10-(4-HOOC-PhO))])FIEWLVRGK([AEEA-AEEA-γGlu-Decanoyl(10-(4-HOOC-PhO))])GEGGGGGEASELSTAALGRLSAELHELATLPRTETGSGSP-NH2"
readout_kind = "Human AmyR3 potency [EC50 (pM)]"
test_value = 30.4

[[record]]
binder = "Compound 0132 (peptide) peptide: H[Aib]EGTFTSDVSSYLEEQAAREFIAWLVRGK([AEEA-AEEA-γGlu-C18 diacid])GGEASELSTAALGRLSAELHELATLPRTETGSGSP-NH2"
readout_kind = "Human AmyR3 potency [EC50 (pM)]"
test_value = 34.9


Now look at this entry.
Compound 0131 (peptide) peptide: H[Aib]EGTFTSDVSSYLEEQAARK([γGlu-C18 diacid])FIAWLVRGRK([γGlu-C18 diacid])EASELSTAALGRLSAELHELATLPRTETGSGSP-NH2 has a reported Human AmyR3 potency [EC50 (pM)] of 14.5
